- Test system: Hela
- ASSAY INFO: MTT cytotoxicity assay, Hela
- Format: cell-based
- CONDITIONS: Homo sapiens, 48 h, mean ± SD of three experiments, read-out: Cancer cell lines IC50, Hela
pIC50: −log10 of the molar value.

{"columns": ["MOLECULE", "SUBJECT OF TEST", "INEQUALITY SIGN", "pIC50"],
 "data": [
  ["COC(=O)C(C)NC(=O)COc1cc(O)c2c(=O)c(-c3ccc(O)cc3)coc2c1 (centres unmarked) [4b]", "Hela", "=", 4.04],
  ["COC(=O)CNC(=O)COc1cc(O)c2c(=O)c(-c3ccc(O)cc3)coc2c1 [4a]", "Hela", "=", 4.18],
  ["O=c1c(-c2ccc(O)cc2)coc2cc(O)cc(O)c12 [Genistein]", "Hela", "<", 4.00],
  ["COC(=O)C(NC(=O)COc1cc(O)c2c(=O)c(-c3ccc(O)cc3)coc2c1)C(C)C (centres unmarked) [4c]", "Hela", "=", 4.08],
  ["COC(=O)C(CC(C)C)NC(=O)COc1cc(O)c2c(=O)c(-c3ccc(O)cc3)coc2c1 (centres unmarked) [4d]", "Hela", "=", 4.17]
]}

====

- SUBJECT OF TEST: BSA (Bos taurus)
- Construct: purchased Aladdin's Reagent Co., Ltd. (Shanghai, China)
- ASSAY INFO: Fluorescence quenching of BSA (Stern-Volmer, double-log, van't Hoff)
- Assay type: binding, bovine
- CONDITIONS: T 298 K
PARAMETER: n (binding sites)

{"columns": ["MOLECULE", "SUBJECT OF TEST", "OBSERVED"],
 "data": [
  ["COC(=O)CNC(=O)COc1cc(O)c2c(=O)c(-c3ccc(O)cc3)coc2c1 [4a]", "BSA (Bos taurus)", 1.86],
  ["COC(=O)C(CC(C)C)NC(=O)COc1cc(O)c2c(=O)c(-c3ccc(O)cc3)coc2c1 (stereo not shown) [4d]", "BSA (Bos taurus)", 1.50],
  ["COC(=O)C(NC(=O)COc1cc(O)c2c(=O)c(-c3ccc(O)cc3)coc2c1)C(C)C (stereo not shown) [4c]", "BSA (Bos taurus)", 1.54],
  ["O=c1c(-c2ccc(O)cc2)coc2cc(O)cc(O)c12 [Genistein]", "BSA (Bos taurus)", 1.42]
]}

====

Reported ΔGexp by item:
- SUBJECT OF TEST: BSA (Bos taurus, UniProt P02769)
- Construct: purchased Aladdin's Reagent Co., Ltd. (Shanghai, China)
- Sequence (P02769 25-607): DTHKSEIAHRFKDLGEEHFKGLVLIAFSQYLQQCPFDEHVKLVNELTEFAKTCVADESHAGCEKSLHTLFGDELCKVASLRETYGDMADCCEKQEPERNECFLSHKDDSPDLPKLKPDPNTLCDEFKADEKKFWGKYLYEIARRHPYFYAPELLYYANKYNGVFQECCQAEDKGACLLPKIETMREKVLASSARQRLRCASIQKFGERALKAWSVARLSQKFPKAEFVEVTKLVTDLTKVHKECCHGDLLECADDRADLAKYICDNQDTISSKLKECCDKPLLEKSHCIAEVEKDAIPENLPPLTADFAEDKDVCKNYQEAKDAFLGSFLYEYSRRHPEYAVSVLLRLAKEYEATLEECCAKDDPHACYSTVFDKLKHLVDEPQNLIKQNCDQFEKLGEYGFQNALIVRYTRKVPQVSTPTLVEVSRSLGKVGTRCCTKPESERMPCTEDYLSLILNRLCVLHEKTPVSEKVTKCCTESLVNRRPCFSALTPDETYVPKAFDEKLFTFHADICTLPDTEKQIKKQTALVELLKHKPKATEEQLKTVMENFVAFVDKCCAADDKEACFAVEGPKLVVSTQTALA
- ASSAY INFO: Fluorescence quenching of BSA (Stern-Volmer, double-log, van't Hoff)
- Assay type: binding, bovine
- CONDITIONS: T 306 K, ΔGexp = ΔH − TΔS

{"columns": ["COMPOUND", "ΔGexp [kJ/M]"],
 "data": [
  ["O=c1c(-c2ccc(O)cc2)coc2cc(O)cc(O)c12 [Genistein]", -37.11],
  ["COC(=O)CNC(=O)COc1cc(O)c2c(=O)c(-c3ccc(O)cc3)coc2c1 [4a]", -47.21],
  ["COC(=O)C(CC(C)C)NC(=O)COc1cc(O)c2c(=O)c(-c3ccc(O)cc3)coc2c1 (centres unmarked) [4d]", -37.19],
  ["COC(=O)C(C)NC(=O)COc1cc(O)c2c(=O)c(-c3ccc(O)cc3)coc2c1 (centres unmarked) [4b]", -38.43],
  ["COC(=O)C(NC(=O)COc1cc(O)c2c(=O)c(-c3ccc(O)cc3)coc2c1)C(C)C (centres unmarked) [4c]", -37.63]
]}
